Tested on: Human immunodeficiency virus 1
Procedure summary: Antiviral activity against wild type HIV-1 IIIB infected in human MT4 cells assessed as protection against virus-induced cytopathic effect incubated for 5 days by MTT assay
Type: functional, organism-based
Test settings: Human immunodeficiency virus 1, IIIB, MT4, 120 h
Assay metric: EC50 (nM)
Just the number in nM, nothing appended.

Known EC50 results, listed for orientation:
- Compound: "Cc1cc(/C=C/C#N)cc(C)c1Oc1nc(Nc2ccc(N3CCN(S(C)(=O)=O)CC3)c(F)c2)ncc1-c1cnc(F)nc1"
  Measured target: "Human immunodeficiency virus 1"
  EC50 / nM: 6.3
- Compound: "Cc1cc(/C=C/C#N)cc(C)c1Oc1nc(Nc2ccc(N3CCN(S(C)(=O)=O)CC3)c(F)c2)ncc1-c1cncnc1"
  Measured target: "Human immunodeficiency virus 1"
  EC50 / nM: 16
- Compound: "Cc1cc(/C=C/C#N)cc(C)c1Oc1nc(Nc2ccc(N3CCN(S(C)(=O)=O)CC3)c(C#N)c2)ncc1-c1cnc(N)nc1"
  Measured target: "Human immunodeficiency virus 1"
  EC50 / nM: 7.2
- Compound: "Cc1cc(/C=C/C#N)cc(C)c1Oc1nc(Nc2ccc(N3CCS(=O)(=O)CC3)c(F)c2)ncc1-c1cnc(N)nc1"
  Measured target: "Human immunodeficiency virus 1"
  EC50 / nM: 6
- Compound: "Cc1cc(/C=C/C#N)cc(C)c1Oc1nc(Nc2ccc(N3CCN(S(C)(=O)=O)CC3)c(C#N)c2)ncc1-c1cncnc1"
  Measured target: "Human immunodeficiency virus 1"
  EC50 / nM: 8.5
- Compound: "Cc1cc(/C=C/C#N)cc(C)c1Oc1nc(Nc2ccc(N3CCS(=O)(=O)CC3)c(F)c2)ncc1-c1ccc(F)nc1"
  Measured target: "Human immunodeficiency virus 1"
  EC50 / nM: 960

[ask] Look up EC50 of "Cc1cc(/C=C/C#N)cc(C)c1Oc1nc(Nc2ccc(N3CCS(=O)(=O)CC3)c(F)c2)ncc1-c1cncnc1" and report it.
[reply] 5.4

----------
Procedure summary: Cytotoxicity against human MT4 cells assessed as reduction in cell viability incubated for 5 days by MTT assay
Type: toxicity, cell-based
Test settings: time 5 day
Returns: string. Value is Met if measured CC50 at 120 h is below 2 µM, and Not met if it is greater than or equal to it.

[ask] Does the reported CC50 at 120 h of "Cc1cc(/C=C/C#N)cc(C)c1Oc1nc(Nc2ccc(N3CCN(S(C)(=O)=O)CC3)c(C#N)c2)ncc1-c1cnc(N)nc1" stay below 2 µM?
[reply] Not met

[ask] Does the reported CC50 at 120 h of "Cc1cc(/C=C/C#N)cc(C)c1Oc1nc(Nc2ccc(N3CCN(S(C)(=O)=O)CC3)c(F)c2)ncc1-c1ccc(N)nc1" stay below 2 µM?
[reply] Not met

[ask] Does the reported CC50 at 120 h of "Cc1cc(/C=C/C#N)cc(C)c1Oc1nc(Nc2ccc(N3CCS(=O)(=O)CC3)c(C#N)c2)ncc1-c1ccc(N)nc1" stay below 2 µM?
[reply] Met

[ask] Does the reported CC50 at 120 h of "Cc1cc(/C=C/C#N)cc(C)c1Oc1nc(Nc2ccc(N3CCS(=O)(=O)CC3)c(F)c2)ncc1-c1cnc(F)nc1" stay below 2 µM?
[reply] Not met

[ask] Does the reported CC50 at 120 h of "Cc1cc(/C=C/C#N)cc(C)c1Oc1nc(Nc2ccc(N3CCN(S(C)(=O)=O)CC3)c(F)c2)ncc1-c1ccc(F)nc1" stay below 2 µM?
[reply] Not met
